Target: UniProt O00519
Sequence (O00519 1-579): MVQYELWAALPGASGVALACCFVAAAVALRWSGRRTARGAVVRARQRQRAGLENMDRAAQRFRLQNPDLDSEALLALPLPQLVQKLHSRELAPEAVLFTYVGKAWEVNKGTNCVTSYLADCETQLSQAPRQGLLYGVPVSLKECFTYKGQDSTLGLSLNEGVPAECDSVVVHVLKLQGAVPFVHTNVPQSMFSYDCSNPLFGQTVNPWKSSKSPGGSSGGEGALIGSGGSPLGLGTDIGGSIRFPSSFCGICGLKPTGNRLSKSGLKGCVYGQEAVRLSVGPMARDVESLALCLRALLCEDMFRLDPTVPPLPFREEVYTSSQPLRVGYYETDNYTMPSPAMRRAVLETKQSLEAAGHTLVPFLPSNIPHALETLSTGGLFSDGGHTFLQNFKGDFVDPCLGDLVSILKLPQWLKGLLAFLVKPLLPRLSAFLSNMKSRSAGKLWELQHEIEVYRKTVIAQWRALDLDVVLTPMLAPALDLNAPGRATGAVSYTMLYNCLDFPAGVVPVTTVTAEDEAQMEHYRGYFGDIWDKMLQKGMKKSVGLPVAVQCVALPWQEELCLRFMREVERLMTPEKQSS
Experiment: Assay Method 1: FAAH assay, 3H-anandamide hydrolysis in homogenate of T84 cells or SK-N-MC cells transfected with human FAAH
Conditions: average of results, > = solubility limit or highest concentration tested
pIC50: −log10 of the molar value. Structures can show the parent of a compound that is named as a salt.
pIC50 below 6 gives class 0; pIC50 at or above it gives class 1.

- O=C(Nc1noc2ccccc12)N1CCN(Cc2cccc(Oc3ccc(OC(F)(F)F)cc3)c2)CC1 [Example 30, trifluoroacetic acid salt]: class 1
- O=C(Nc1ccon1)N1CCN(Cc2cccc(Oc3cccc(C(F)(F)F)c3)c2)CC1 [Example 48, trifluoroacetic acid salt]: class 1
- O=C(Nc1ccon1)N1CCN(Cc2cccc(Oc3ccc4ccccc4c3)c2)CC1: class 1
- O=C(Nc1cccnn1)N1CCN(Cc2ccc3[nH]ccc3c2)CC1: class 0
- COc1ccc(NC(=O)N2CCN(Cc3cccc(Oc4ccc(Cl)cc4)c3)CC2)nn1: class 1
- O=C(Nc1noc2ccccc12)N1CCN(Cc2cccc(Oc3ccc4ncccc4c3)c2)CC1: class 1
- O=C(Nc1ccon1)N1CCN(Cc2cccc(Oc3cccc(Br)c3)c2)CC1: class 1
- O=C(Nc1ccc2ccccc2n1)N1CCC(Cc2ccc3ccccc3c2)CC1 [Example 18, trifluoroacetic acid salt]: class 0
- O=C(Nc1noc2ccccc12)N1CCN(Cc2cccc(Oc3ccc4ccccc4c3)c2)CC1: class 1
- COC(=O)c1ccccc1C#Cc1cccc(CN2CCN(C(=O)Nc3noc4ccccc34)CC2)c1: class 0
- Cc1ccccc1C#Cc1cccc(CN2CCN(C(=O)Nc3noc4ccccc34)CC2)c1: class 1
- O=C(Nc1ccc(Cl)nn1)N1CCC(Cc2ccc3ccccc3c2)CC1: class 1
- O=C(Nc1cnccn1)N1CCN(Cc2ccc(Br)cc2)CC1: class 1
- O=C(Nc1ccon1)N1CCN(Cc2ccc(Br)cc2)CC1: class 0
- O=C(Nc1noc2ccccc12)N1CCN(Cc2ccc(F)c(OC(F)(F)F)c2)CC1: class 1
- O=C(Nc1noc2ccccc12)N1CCN(Cc2cccc(Oc3cccc(Br)c3)c2)CC1 [Example 31, trifluoroacetic acid salt]: class 1
- N#Cc1ccc(Oc2cccc(CN3CCN(C(=O)Nc4cnccn4)CC3)c2)cc1C(F)(F)F: class 1
- O=C(Nc1noc2ccccc12)N1CCN(Cc2cccc(Oc3cccc(C(F)(F)F)c3)c2)CC1 [Example 51, trifluoroacetic acid salt]: class 1
- O=C(Nc1cnccn1)N1CCC(Cc2ccc3ccccc3c2)CC1 [Example 10, trifluoroacetic acid salt]: class 1
- Cc1cc(NC(=O)N2CCN(Cc3cccc(Oc4ccc(Cl)cc4)c3)CC2)no1: class 1
- O=C(Nc1noc2ccccc12)N1CCN(Cc2cccc(Oc3ccc(C(F)(F)F)c(Cl)c3)c2)CC1 [Example 204, trifluoroacetic acid salt]: class 1
- O=C(Nc1noc2ccccc12)N1CCN(Cc2cccc(C#Cc3cc(Cl)ccc3Cl)c2)CC1: class 1
- O=C(Nc1noc2ccccc12)N1CCC(Cc2ccc3ccccc3c2)CC1: class 1
- O=C(Nc1cccc2nonc12)N1CCN(Cc2ccc3c(c2)OC(F)(F)O3)CC1 [Example 5, trifluoroacetic acid salt]: class 1
- COC(=O)Cc1ccccc1C#Cc1cccc(CN2CCN(C(=O)Nc3noc4ccccc34)CC2)c1: class 1
- O=C(Nc1nc(-c2ccccc2)ns1)N1CCC(Cc2ccc3ccccc3c2)CC1: class 0
- O=C(Nc1nnn[nH]1)N1CCN(Cc2cccc(Oc3cccc(OC(F)(F)F)c3)c2)CC1: class 1
- C#Cc1cccc(CN2CCN(C(=O)Nc3noc4ccccc34)CC2)c1: class 1

---

Target: rat FAAH (Rattus norvegicus, UniProt P97612)
Sequence (P97612 1-579): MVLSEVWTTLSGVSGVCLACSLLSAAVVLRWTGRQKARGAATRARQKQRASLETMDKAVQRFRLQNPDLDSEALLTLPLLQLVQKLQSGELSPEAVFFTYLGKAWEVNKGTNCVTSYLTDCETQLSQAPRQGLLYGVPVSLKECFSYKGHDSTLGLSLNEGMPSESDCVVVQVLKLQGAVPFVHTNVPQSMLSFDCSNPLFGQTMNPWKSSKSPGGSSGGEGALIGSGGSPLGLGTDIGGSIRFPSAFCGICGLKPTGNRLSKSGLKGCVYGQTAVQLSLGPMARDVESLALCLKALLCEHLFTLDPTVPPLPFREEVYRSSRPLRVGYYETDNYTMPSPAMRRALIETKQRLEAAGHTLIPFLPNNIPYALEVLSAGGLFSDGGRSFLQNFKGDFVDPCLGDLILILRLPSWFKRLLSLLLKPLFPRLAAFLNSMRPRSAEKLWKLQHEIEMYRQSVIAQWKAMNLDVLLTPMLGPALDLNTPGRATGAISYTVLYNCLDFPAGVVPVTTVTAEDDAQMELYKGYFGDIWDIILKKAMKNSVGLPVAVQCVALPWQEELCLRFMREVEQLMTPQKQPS
Assay: Assay Method 2: FAAH assay, 3H-anandamide hydrolysis in homogenate of SK-N-MC cells transfected with rat FAAH
Conditions: average of results, > = solubility limit or highest concentration tested
Where a name gives a salt, the structure may show the parent alone.
measured.parameter: IC50 (nM)

- O=C(Nc1noc2ccccc12)N1CCN(Cc2cc3ccccc3s2)CC1 [Example 113]: 30
- O=C(Nc1cnccn1)N1CCN(Cc2cccc(Oc3ccc(SC(F)(F)F)cc3)c2)CC1 [Example 234]: 12
- O=C(Nc1noc2ccccc12)N1CCN(Cc2cccc(Oc3cccc(Cl)c3)c2)CC1 [Example 127]: 40
- O=C(Nc1cnccn1)N1CCN(Cc2cccc(Oc3ccc(Br)cc3)c2)CC1 [Example 221]: 50
- O=C(Nc1ccon1)N1CCN(Cc2cccc(Oc3ccc4ncccc4c3)c2)CC1 [Example 162]: 6400
- O=C(Nc1nn[nH]n1)N1CCN(Cc2cccc(Oc3ccc(F)c(F)c3)c2)CC1 [Example 169]: 600
- O=C(Nc1cnccn1)N1CCN(Cc2cccc(Oc3ccc(F)c(C(F)(F)F)c3)c2)CC1 [Example 241]: 370
- O=C(Nc1noc2ccccc12)N1CCN(Cc2ccc(OC(F)(F)F)c(F)c2)CC1 [Example 108]: 50
- O=C(Nc1cccnn1)N1CCN(Cc2cnc3ccccc3c2)CC1 [Example 197]: 9000
- O=C(Nc1cnccn1)N1CCN(Cc2cccc(Oc3ccc(C(F)(F)F)cc3)c2)CC1 [Example 215]: 30
- O=C(Nc1cnccn1)N1CCN(Cc2cccc(Oc3cccc(Br)c3)c2)CC1 [Example 240]: 80
- O=C(Nc1nn[nH]n1)N1CCN(Cc2cccc(Oc3ccc4ccccc4c3)c2)CC1 [Example 166]: 7
- O=C(Nc1nn[nH]n1)N1CCN(Cc2cccc(Oc3cccc(C(F)(F)F)c3)c2)CC1 [Example 186]: 160
- O=C(Nc1noc2ccccc12)N1CCN(Cc2cccc(C#Cc3ccc4c(c3)OCO4)c2)CC1 [Example 89]: 544
- O=C(Nc1noc2ccccc12)N1CCN(Cc2cccc(Oc3ccc(C(F)(F)F)c(Cl)c3)c2)CC1 [Example 204, trifluoroacetic acid salt]: 32
- O=C(Nc1nnn[nH]1)N1CCN(Cc2cccc(Oc3cccc(OC(F)(F)F)c3)c2)CC1 [Example 173]: 200
- O=C(Nc1ccon1)N1CCN(Cc2cccc(Oc3ccc(Br)cc3)c2)CC1 [Example 145]: 430

---

Biological target: rat FAAH (Rattus norvegicus)
Sequence (P97612 1-579): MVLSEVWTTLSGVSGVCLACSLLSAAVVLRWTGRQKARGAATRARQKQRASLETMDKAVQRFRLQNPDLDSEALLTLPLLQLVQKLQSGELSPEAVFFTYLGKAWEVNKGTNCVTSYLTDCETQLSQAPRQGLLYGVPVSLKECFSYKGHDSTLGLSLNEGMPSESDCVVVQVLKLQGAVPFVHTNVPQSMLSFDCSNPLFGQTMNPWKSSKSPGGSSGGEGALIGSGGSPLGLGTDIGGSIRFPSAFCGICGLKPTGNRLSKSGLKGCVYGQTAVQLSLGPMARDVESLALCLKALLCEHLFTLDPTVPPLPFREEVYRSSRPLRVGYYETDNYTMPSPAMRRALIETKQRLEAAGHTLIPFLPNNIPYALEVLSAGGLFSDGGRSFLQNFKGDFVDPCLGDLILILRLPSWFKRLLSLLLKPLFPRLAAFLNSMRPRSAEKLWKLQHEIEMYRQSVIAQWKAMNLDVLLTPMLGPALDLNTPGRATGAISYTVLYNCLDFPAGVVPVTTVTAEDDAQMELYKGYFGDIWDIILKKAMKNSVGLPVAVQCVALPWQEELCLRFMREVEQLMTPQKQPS
Assay: Assay Method 2: FAAH assay, 3H-anandamide hydrolysis in homogenate of SK-N-MC cells transfected with rat FAAH
Format: biochemical
Conditions: average of results, > = solubility limit or highest concentration tested
Structures can show the parent of a compound that is named as a salt.
measured.parameter: IC50 (nM)

* O=C(Nc1cnccn1)N1CCN(Cc2cccc(Oc3ccc(OC(F)(F)F)cc3)c2)CC1 | 140
* O=C(Nc1cccc2nonc12)N1CCN(Cc2cccc(C#Cc3ccccc3)c2)CC1 | 350
* O=C(Nc1nccnc1Cl)N1CCN(Cc2cccc(Oc3ccc(Cl)cc3)c2)CC1 | 9
* O=C(Nc1cc[nH]n1)N1CCN(Cc2cccc(Oc3ccc(Cl)cc3)c2)CC1 [Example 53, trifluoroacetic acid salt] | 30
* O=C(Nc1ccon1)N1CCN(Cc2cccc(Oc3ccc4ccccc4c3)c2)CC1 | 1200
* O=C(Nc1noc2ccccc12)N1CCN(Cc2cccc(Oc3ccc4ccccc4c3)c2)CC1 | 9
* O=C(Nc1ccc2ncsc2c1)N1CCC(Cc2ccc3ccccc3c2)CC1 | 55
